- Tested on: SF-268 CNS
- Assay Explanation: NCI-60 one-dose screen, 48 h (100 = growth as untreated, 0 = no growth, -100 = all killed)
- Setup Conditions: 10 µM unless noted
Compounds without any hit were thinned out: in the full panel of roughly 83,000, 20% have a hit.

>  <Molecule>
O=C1c2nsnc2C(=O)c2c(F)c(F)c(F)c(F)c21

>  <growth, %>
-15.6

$$$$
>  <Molecule>
CN(C)c1nc(N)nc(Cn2c(-c3nonc3N)nc3ccccc32)n1

>  <growth, %>
101

$$$$
>  <Molecule>
CCC(CC)NCCCCCNc1cc(OC)cc2cccnc12

>  <growth, %>
85.3

$$$$
>  <Molecule>
COC(=O)[C@]1(CCSC)N[C@H](c2cn(-c3ccccc3)nc2C)[C@@H]2C(=O)N(c3ccc(C)cc3)C(=O)[C@@H]21

>  <growth, %>
98.2

$$$$
>  <Molecule>
CC[N+](CC)(CCOCCOCC[N+](CC)(CC)Cc1ccc([N+](=O)[O-])cc1)Cc1ccc([N+](=O)[O-])cc1

>  <growth, %>
98.6

$$$$
>  <Molecule>
CCC(C)CC(C)C(=O)c1c(O)ccn(O)c1=O (stereo not given)

>  <growth, %>
26.4

$$$$
>  <Molecule>
O=C(CSc1nc2c(n1Nc1ccccc1)-c1ccccc1SC2)Nc1nc(-c2ccc(Cl)cc2)cs1

>  <growth, %>
47.2

$$$$
>  <Molecule>
Cc1ccc(NC(=O)CSc2nnc3n(Cc4ccccc4)c(=O)c4c(C)c(C(N)=O)sc4n23)cc1

>  <growth, %>
55.8

$$$$
>  <Molecule>
S=c1[nH]nc2sc3ccccc3n12

>  <growth, %>
110

$$$$
>  <Molecule>
C=Cc1nn2c(CCC(=O)c3nc4ccccc4[nH]3)nnc2s1

>  <growth, %>
101

$$$$
